assay: Inhibition of human intestinal CE-mediated irinotecan hydrolysis
Collected Ki values appear next to each entry.
Write it as a number; the unit µM goes unstated.

Below: 2 compounds and their reported Ki.
{"compoundStructure": "O=S(=O)(Nc1ccc2c(c1)Cc1cc(NS(=O)(=O)c3ccc(Cl)cc3)ccc1-2)c1ccc(Cl)cc1", "unitAbbreviation": "µM", "Ki": 0.0377}
{"compoundStructure": "O=S(=O)(Nc1ccc(NS(=O)(=O)c2ccc(Br)cc2)cc1)c1ccc(Br)cc1", "unitAbbreviation": "µM", "Ki": 0.044}

Could you share which Ki value was measured for O=S(=O)(Nc1ccc(NS(=O)(=O)c2cccc(Cl)c2)cc1)c1cccc(Cl)c1 ?
0.062

* * *

Collected pKi values appear next to each entry.
assay: Inhibition of human intestinal CE-mediated O-nitrophenyl acetate hydrolysis by spectrophotometry
// field semantics: pKi = negative decimal log of concentration (mol/L)

{"compoundStructure": "Cc1ccc(S(=O)(=O)Nc2ccc(NS(=O)(=O)c3ccc(Cl)cc3)cc2)cc1", "measuredProperty": "pKi", "assayValue": 6.79}
{"compoundStructure": "O=S(=O)(Nc1c(Cl)c(Cl)c(NS(=O)(=O)c2ccccc2)c(Cl)c1Cl)c1ccccc1", "measuredProperty": "pKi", "assayValue": 6.35}
{"compoundStructure": "O=S(=O)(Nc1ccc(NS(=O)(=O)c2ccc(F)c(F)c2)cc1)c1ccc(F)c(F)c1", "measuredProperty": "pKi", "assayValue": 6.80}
{"compoundStructure": "O=S(=O)(Nc1ccc(NS(=O)(=O)c2cccc(Cl)c2Cl)cc1)c1cccc(Cl)c1Cl", "measuredProperty": "pKi", "assayValue": 6.57}
{"compoundStructure": "O=S(=O)(Nc1ccc(NS(=O)(=O)c2ccc(Cl)cc2)c2ccccc12)c1ccc(Cl)cc1", "measuredProperty": "pKi", "assayValue": 6.71}
{"compoundStructure": "O=S(=O)(Nc1ccc(NS(=O)(=O)c2ccccc2F)cc1)c1ccccc1F", "measuredProperty": "pKi", "assayValue": 5.84}
{"compoundStructure": "Cc1ccc(C(=O)O)cc1S(=O)(=O)Nc1ccc(NS(=O)(=O)c2ccc(F)cc2)cc1", "measuredProperty": "pKi", "assayValue": 6.16}
{"compoundStructure": "O=S(=O)(Nc1cc(Cl)c(NS(=O)(=O)c2ccc(Cl)cc2)cc1Cl)c1ccc(Cl)cc1", "measuredProperty": "pKi", "assayValue": 6.34}
{"compoundStructure": "CS(=O)(=O)Nc1ccc(SSc2ccc(NS(C)(=O)=O)cc2)cc1", "measuredProperty": "pKi", "assayValue": 6.12}
{"compoundStructure": "Cc1cc(NS(=O)(=O)c2ccccc2)ccc1NS(=O)(=O)c1ccccc1", "measuredProperty": "pKi", "assayValue": 6.44}

Could you share which pKi value was measured for COc1ccc(S(=O)(=O)Nc2ccc(NS(=O)(=O)c3ccc(F)cc3)cc2)cc1 ?
6.25

What do you get for Cc1ccc(S(=O)(=O)Nc2ccc(NS(=O)(=O)c3ccc(F)cc3F)cc2)cc1 ?
6.41

What do you get for O=S(=O)(Nc1c(F)c(F)c(NS(=O)(=O)c2ccc(Cl)cc2)c(F)c1F)c1ccc(Cl)cc1 ?
7.38

What do you get for O=S(=O)(Nc1ccc(NS(=O)(=O)c2ccc3ccccc3c2)cc1)c1ccc2ccccc2c1 ?
5.80

What do you get for O=S(=O)(Nc1ccc(NS(=O)(=O)c2cccc(Cl)c2)cc1)c1cccc(Cl)c1 ?
7.13

What do you get for Cc1c(C)c(NS(=O)(=O)c2cccc(Cl)c2)c(C)c(C)c1NS(=O)(=O)c1cccc(Cl)c1 ?
5.69
